- procedure_summary: in vitro
- test_settings: mouse, microsomes
observable: microsomal CLint (µL/min/mg)
Your answer should be a plain number; it is taken to be in µL/min/mg.

Request: // microsomal CLint lookup, key: COc1ccc(-c2cc(NC(=O)c3ccc(F)cc3Cl)ccc2OC)cc1
Response: 921

* * *

- Tested on: M. tuberculosis H37Rv
- procedure_summary: Checkerboard alamarBlue compound interaction assay
- Type: cell-based, Mycobacterium tuberculosis
- test_settings: Mycobacterium tuberculosis, H37RV; drug alone, checkerboard
Listed next: entries and their corresponding MIC.
# unit: µM | format: bare number

Worked set:
O=[N+]([O-])c1cn2c(n1)OC[C@@H](OCc1ccc(OC(F)(F)F)cc1)C2 [PA824] : 0.1
CC[C@@H](CO)NCCN[C@@H](CC)CO [EMB, ethambutol] : 6.25

Next, consider the following compound.
Request: Fill in the blank: the reported MIC of COc1nc2ccc(Br)cc2cc1[C@@H](c1ccccc1)[C@@](O)(CCN(C)C)c1cccc2ccccc12 [BDQ, bedaquiline] is ____.
Response: 0.39

* * *

- Tested on: M. tuberculosis H37Rv
- procedure_summary: Checkerboard alamarBlue compound interaction assay
- Assay type: cell-based, Mycobacterium tuberculosis
- test_settings: Mycobacterium tuberculosis, H37RV; drug alone, checkerboard
observable: MIC (µM)
Please give a number only; it is taken to be in µM.

CSc1ccc2c(c1)N(CCC1CCCCN1C)c1ccccc1S2 (stereo not shown) : 6.25
CO[C@H]1/C=C/O[C@@]2(C)Oc3c(C)c(O)c4c(O)c(c(/C=N/N5CCN(C)CC5)c(O)c4c3C2=O)NC(=O)/C(C)=C\C=C\[C@H](C)[C@H](O)[C@@H](C)[C@@H](O)[C@@H](C)[C@H](OC(C)=O)[C@@H]1C : 0.02
COc1ccc(-c2cc(NC(=O)c3ccc(F)cc3Cl)ccc2OC)cc1 : 12.5

// next item, MIC requested
Request: Entry NNC(=O)c1ccncc1 has what MIC?
Response: 0.39

* * *

- procedure_summary: in vitro
- test_settings: African green monkey, CC50, Vero cells, 48 h, MTT
observable: CC50

Request: # input compound: COc1ccc(-c2cc(NC(=O)c3ccc(F)cc3Cl)ccc2OC)cc1 [DG70] ; wanted: its CC50
Response: > 80 µg/mL

* * *

Recorded measurements of CC50, one per entry
- procedure_summary: in vitro
- test_settings: African green monkey
# output: bare number, implied unit µg/mL

Use the examples below as a reference point.
COc1ccc(-c2cccc(NC(=O)c3ccc(F)cc3Cl)c2)cc1 [JSF-2907] : 50
COc1ccc(-c2cc(NC(=O)c3ccccc3Cl)ccc2OC)cc1 [JSF-2908] : 50
COc1ccc(-c2cc(N(C)C(=O)c3ccc(F)cc3Cl)ccc2OC)cc1 [JSF-2949] : 24

Let us examine a further case.
Request: Quick check: CC50 of O=C(Nc1ccc(O)c(-c2ccc(O)cc2)c1)c1ccc(F)cc1Cl [JSF-2950] ?
Response: 50

* * *

- procedure_summary: in vitro
- test_settings: African green monkey, 50% cytotoxic concentration (CC50), Vero cells
observable: CC50

Request: Find the recorded CC50 belonging to COc1ccc(-c2cc(NC(=O)c3ccc(F)cc3Cl)ccc2OC)cc1 and report it.
Response: > 77 µg/mL

* * *

- procedure_summary: in vitro
- test_settings: African green monkey
observable: CC50

Solved entries (count: 5):
O=C(Nc1cccc(-c2ccccc2)c1)c1ccc(F)cc1Cl [JSF-2910] : > 50 µg/mL
COc1ccc(-c2cc(NC(=O)c3ccc(F)cc3)ccc2OC)cc1 [JSF-2909] : > 50 µg/mL
COc1ccc(NC(=O)c2ccc(F)cc2Cl)cc1 [JSF-2926] : > 70 µg/mL
COc1ccc(-c2cc(NCc3ccc(F)cc3Cl)ccc2OC)cc1 [JSF-2951] : > 50 µg/mL
COc1ccc(NC(=O)c2ccc(F)cc2Cl)cc1-c1ccccc1 [JSF-2971] : > 50 µg/mL

Moving on to another compound below.
Request: For the compound shown here, COc1ccc(-c2cc(NC(=O)c3ccccc3)ccc2OC)cc1 [JSF-2912] , give the reported CC50.
Response: > 80 µg/mL
